- assayed.target: Polyadenylate-binding protein 1 (Homo sapiens)
- Sequence (P11940 whole entry, the tested form may be a part): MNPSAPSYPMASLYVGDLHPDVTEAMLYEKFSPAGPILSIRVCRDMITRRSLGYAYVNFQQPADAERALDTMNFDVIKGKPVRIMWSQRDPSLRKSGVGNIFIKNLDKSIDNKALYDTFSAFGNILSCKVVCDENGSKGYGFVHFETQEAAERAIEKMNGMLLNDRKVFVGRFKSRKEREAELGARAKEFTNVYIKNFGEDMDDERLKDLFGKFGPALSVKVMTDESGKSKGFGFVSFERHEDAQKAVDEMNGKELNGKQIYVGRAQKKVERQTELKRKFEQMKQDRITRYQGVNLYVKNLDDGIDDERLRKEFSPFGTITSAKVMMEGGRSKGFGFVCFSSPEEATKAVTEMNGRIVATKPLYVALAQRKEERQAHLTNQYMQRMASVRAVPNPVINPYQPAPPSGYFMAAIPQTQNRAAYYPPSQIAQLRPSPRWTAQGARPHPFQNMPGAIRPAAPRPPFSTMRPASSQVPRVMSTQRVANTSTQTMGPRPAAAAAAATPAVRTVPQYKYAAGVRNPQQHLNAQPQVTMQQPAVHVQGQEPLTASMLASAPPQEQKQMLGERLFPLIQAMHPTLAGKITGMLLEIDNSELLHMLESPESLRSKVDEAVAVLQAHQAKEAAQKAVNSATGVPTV
- assay.overview: MLLE domain peptide-binding blockers, IC50 – biochemical, fluorescence polarization, FITC-PAM2 peptide, dose response (AID 602259)
- Assay type: functional
- condition.description: read-out: IC50_Mean
Where a name gives a salt, the structure may show the parent alone. Calls of active or inactive are those of the source.

{"compound": "O=C(Nc1cc(S(=O)(=O)Nc2ccc(Cl)cc2)ccc1N1CCCCC1)c1ccc(F)cc1Cl", "IC50": "> 66 µM (inactive)"}
{"compound": "CC[C@@H](CO)NC(=O)[C@@H]1C=C2c3cccc4c3c(cn4C)C[C@H]2N(C)C1 [METHYSERGIDE MALEATE]", "IC50": "32.2 µM (inactive)"}
{"compound": "COc1ccccc1N(C(C)=O)C1=C(Cl)C(=O)c2ccccc2C1=O", "IC50": "> 66 µM (inactive)"}
{"compound": "COc1ccc(C(=O)NC2(C(F)(F)F)N=C3SCCN3C2=O)cc1 (configuration not stated)", "IC50": "> 66 µM (inactive)"}
{"compound": "O=C(O)CC(SCC(=O)Nc1ccc(S(=O)(=O)N2CCCC2)cc1)C(=O)O (configuration not stated)", "IC50": "> 66 µM (inactive)"}
{"compound": "COc1cc2c(cc1OC)C(c1ccccc1O)N(C1CC(=O)N(c3ccccc3)C1=O)CC2 (configuration not stated)", "IC50": "> 66 µM (inactive)"}
{"compound": "COc1ccc(Nc2ccc(N3C(=O)CC(C)C3=O)cc2[N+](=O)[O-])cn1 (configuration not stated)", "IC50": "48.4 µM (inactive)"}
{"compound": "Cc1c(NC(=S)NC(=O)CSc2ccc(Cl)cc2)cccc1C(=O)O", "IC50": "> 66 µM (inactive)"}
{"compound": "Cc1c(NC(=S)NC(=O)c2cccc3ccccc23)cccc1C(=O)O", "IC50": "> 66 µM (inactive)"}
{"compound": "C=CCSC1=C(C#N)C(c2ccccc2OCC)C(C#N)C(=O)N1 (configuration not stated)", "IC50": "> 66 µM (inactive)"}
{"compound": "Cc1ccc(S(=O)(=O)CC(=O)Nc2nnc(C(C)(C)C)s2)cc1", "IC50": "> 66 µM (inactive)"}
{"compound": "CC1CCN(c2ccc(NC(=S)NC(=O)c3ccc(-c4cccc([N+](=O)[O-])c4)o3)cc2)CC1", "IC50": "> 66 µM (inactive)"}

----------
- assayed.target: Caspase-3 (Homo sapiens, UniProt P42574);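 note: Dose-response selectivity test against caspase-3 for candidate inhibitors of sentrin-specific proteases (SENPs)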
- Assay type: functional
Activity calls are given as the source filed them.

{"compound": "CCC(C)n1c(NC(=O)c2ccccc2)c(C#N)c2nc3ccccc3nc21 (centres undefined)", "IC50": "13.3 µM (active)"}
{"compound": "CCCCc1ccc(NC(=O)Nc2cccnc2)cc1", "IC50": "22.7 µM (active)"}
{"compound": "O=C(CCl)Oc1ccc2occ(C(=O)c3cccs3)c2c1", "IC50": "21.4 µM (active)"}
{"compound": "COc1ccc(NC(=O)c2cc3ccccc3cc2O)cc1", "IC50": "20.7 µM (active)"}

----------
- Test system: INS1
- assay.overview: INS-1E survival protection against cytokine death – cell-based, luminescence, retest, dose response (AID 449756);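 note: cell death triggered by IL-1 beta plus TNF-alpha plus IFN-gamma mixture; protective hits raise ATP signal compared with cytokine alone wells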
- Type: functional
- condition.description: Rattus norvegicus
The source made the active and inactive calls.
Possible outcomes: 1 (yes) = active, 0 (no) = inactive

{"query.smiles": "CN1/C(=C\\C(=O)c2ccco2)C(C)(C)c2ccccc21", "class": "1 (yes)"}
{"query.smiles": "COc1cc(SC#N)ccc1/N=C/c1c(C)[nH]n(-c2ccc(C)c(C)c2)c1=O", "class": "1 (yes)"}
{"query.smiles": "C/C(=N\\NC(=O)c1cccc(Br)c1)c1ccccn1", "class": "1 (yes)"}
{"query.smiles": "CC(C)OCCCNc1[nH]cnc2c3cc(F)ccc3nc1-2", "class": "1 (yes)"}
{"query.smiles": "CCC(CC)C(=O)c1c[nH]c(C(=O)NCc2ccccn2)c1", "class": "0 (no)"}
